The origin of these recorded values is patent US20220106304A1.

# measuredTarget: BRN2 (Homo sapiens, UniProt P20265)
# Sequence (P20265 1-443): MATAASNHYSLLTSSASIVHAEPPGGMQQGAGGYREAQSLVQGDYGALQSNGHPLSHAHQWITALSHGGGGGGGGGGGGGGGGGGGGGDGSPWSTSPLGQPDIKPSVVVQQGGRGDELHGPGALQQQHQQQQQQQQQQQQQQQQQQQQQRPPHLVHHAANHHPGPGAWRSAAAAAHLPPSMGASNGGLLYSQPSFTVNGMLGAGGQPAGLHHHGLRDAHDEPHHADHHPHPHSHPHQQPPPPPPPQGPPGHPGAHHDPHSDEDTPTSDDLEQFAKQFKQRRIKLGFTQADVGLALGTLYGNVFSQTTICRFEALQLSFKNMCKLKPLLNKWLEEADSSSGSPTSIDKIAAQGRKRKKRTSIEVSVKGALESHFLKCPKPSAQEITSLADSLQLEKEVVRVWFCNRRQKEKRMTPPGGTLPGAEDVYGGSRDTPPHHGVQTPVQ
# assaySummary: cell-based
# setupConditions: read-out: % BRN2 Inhibition (10 μM), 10 μM compound, 24 hours, 42D^ENZR cells stably expressing BRN2-luciferase reporter; negative = activation
Please note: 1 (yes) applies when inhibition at 10 µM is 80% or greater, and 0 (no) applies otherwise.

Sample answers from the record:
                                   compound  labelclass
0  Cn1c(-c2ccc(C3CCNCC3)o2)nc2ccc(C(F)(F)F)cc21      0 (no)
1  O=[N+]([O-])c1ccc(-c2nc(-c3cc4ccccc4o3)cs2)o1      0 (no)
2  c1ccc2c(c1)CCC2c1ccc(-c2nc3ccccc3s2)o1 (stereo not shown)     1 (yes)
3   Cn1c(-c2csc(-c3ccccc3F)n2)nc2ccc(F)cc21      0 (no)
4  c1ccc2oc(-c3csc(N4CC5CC4CO5)n3)cc2c1 (stereo not shown)      0 (no)

Prompt: Does FC(F)(F)c1ccc2cc(-c3csc(-c4ncco4)n3)oc2c1 have a reported inhibition at 10 µM of at least 80%?
Response: 1 (yes)

Prompt: Okay, and Cc1ccc2cc(-c3csc(-c4ccco4)n3)oc2c1 ?
Response: 1 (yes)

Prompt: Query Fc1sc(-c2ccco2)nc1-c1cc2ccc(C(F)(F)F)cc2o1 next
Response: 0 (no)

Prompt: Field entry: Cn1c(-c2ccc(-c3ccccc3)o2)nc2ccccc21
Response: 1 (yes)

----------
# measuredTarget: BRN2 (Homo sapiens, UniProt P20265)
# assaySummary: cell-based
# setupConditions: read-out: % BRN2 Inhibition (30 μM), 30 μM compound, 24 hours, 42D^ENZR cells stably expressing BRN2-luciferase reporter; negative = activation
Here, each record is paired with measured inhibition at 30 µM data.
Enter the number, and then the unit.

For orientation, consider the following solved cases.
>>> df
                                   compound    parametermeasured  valuemeasured
0  Clc1ccc2cc(-c3csc(C4CCCO4)n3)oc2c1 (stereo not shown)  inhibition at 30 µM            95%
1  FC(F)(F)c1ccc2cc(-c3csc(-c4ncco4)n3)oc2c1  inhibition at 30 µM            86%
2        c1ccc(-c2nc(-c3cc4ccccc4o3)cs2)cc1  inhibition at 30 µM          57.2%
3  O=C(NC1(c2ccco2)CC1)c1cc2ccc(C(F)(F)F)cc2o1  inhibition at 30 µM           -25%
4  Cn1c(-c2ccc(C3CCNCC3)o2)nc2ccc(C(F)(F)F)cc21  inhibition at 30 µM            50%

Prompt: I'm curious: which inhibition at 30 µM was measured for Fc1sc(-c2ccco2)nc1-c1cc2ccc(C(F)(F)F)cc2o1 tested on BRN2 (Homo sapiens, UniProt P20265)?
Response: 56.3%

Prompt: Next compound: COc1ccccc1-c1ccc(-c2nc3ccccc3n2C)o1
Response: 95.8%

Prompt: Now the same for FC(F)(F)c1ccc2cc(-c3csc(N4CCCC4)n3)oc2c1
Response: 62.4%

Prompt: Let us now turn to COc1ccc2cc(-c3csc(-c4ccco4)n3)oc2c1
Response: 92.5%

Prompt: Subsequent entry: FC(F)(F)c1ccc2cc(-c3csc(C4CCNCC4)n3)oc2c1
Response: 98%

Prompt: Same read-out for Cc1c(-c2csc(-c3ccccn3)n2)oc2ccccc12 ?
Response: 99.9%

Prompt: Next: O=C1CCN(c2nc(-c3cc4ccc(Cl)cc4o3)cs2)C1
Response: 91.5%

Prompt: Thanks! And N#Cc1c(-c2csc(-c3ccco3)n2)oc2ccccc12 ?
Response: 96%

Prompt: How about Clc1ccc2cc(-c3csc(-c4ccc[nH]4)n3)oc2c1 ?
Response: 86.9%
